# IC50 per entry
molecular target: ALK (Homo sapiens, UniProt Q9UM73); construct: host or cells: baculovirus expression system; assay: ALK Kinase Assay (ELISA/TRF, PLC-γ substrate); type: biochemical; conditions: ALK kinase inhibition, 1 μM ATP; read-out: ALK Potency
Sequence (Q9UM73 19-1620): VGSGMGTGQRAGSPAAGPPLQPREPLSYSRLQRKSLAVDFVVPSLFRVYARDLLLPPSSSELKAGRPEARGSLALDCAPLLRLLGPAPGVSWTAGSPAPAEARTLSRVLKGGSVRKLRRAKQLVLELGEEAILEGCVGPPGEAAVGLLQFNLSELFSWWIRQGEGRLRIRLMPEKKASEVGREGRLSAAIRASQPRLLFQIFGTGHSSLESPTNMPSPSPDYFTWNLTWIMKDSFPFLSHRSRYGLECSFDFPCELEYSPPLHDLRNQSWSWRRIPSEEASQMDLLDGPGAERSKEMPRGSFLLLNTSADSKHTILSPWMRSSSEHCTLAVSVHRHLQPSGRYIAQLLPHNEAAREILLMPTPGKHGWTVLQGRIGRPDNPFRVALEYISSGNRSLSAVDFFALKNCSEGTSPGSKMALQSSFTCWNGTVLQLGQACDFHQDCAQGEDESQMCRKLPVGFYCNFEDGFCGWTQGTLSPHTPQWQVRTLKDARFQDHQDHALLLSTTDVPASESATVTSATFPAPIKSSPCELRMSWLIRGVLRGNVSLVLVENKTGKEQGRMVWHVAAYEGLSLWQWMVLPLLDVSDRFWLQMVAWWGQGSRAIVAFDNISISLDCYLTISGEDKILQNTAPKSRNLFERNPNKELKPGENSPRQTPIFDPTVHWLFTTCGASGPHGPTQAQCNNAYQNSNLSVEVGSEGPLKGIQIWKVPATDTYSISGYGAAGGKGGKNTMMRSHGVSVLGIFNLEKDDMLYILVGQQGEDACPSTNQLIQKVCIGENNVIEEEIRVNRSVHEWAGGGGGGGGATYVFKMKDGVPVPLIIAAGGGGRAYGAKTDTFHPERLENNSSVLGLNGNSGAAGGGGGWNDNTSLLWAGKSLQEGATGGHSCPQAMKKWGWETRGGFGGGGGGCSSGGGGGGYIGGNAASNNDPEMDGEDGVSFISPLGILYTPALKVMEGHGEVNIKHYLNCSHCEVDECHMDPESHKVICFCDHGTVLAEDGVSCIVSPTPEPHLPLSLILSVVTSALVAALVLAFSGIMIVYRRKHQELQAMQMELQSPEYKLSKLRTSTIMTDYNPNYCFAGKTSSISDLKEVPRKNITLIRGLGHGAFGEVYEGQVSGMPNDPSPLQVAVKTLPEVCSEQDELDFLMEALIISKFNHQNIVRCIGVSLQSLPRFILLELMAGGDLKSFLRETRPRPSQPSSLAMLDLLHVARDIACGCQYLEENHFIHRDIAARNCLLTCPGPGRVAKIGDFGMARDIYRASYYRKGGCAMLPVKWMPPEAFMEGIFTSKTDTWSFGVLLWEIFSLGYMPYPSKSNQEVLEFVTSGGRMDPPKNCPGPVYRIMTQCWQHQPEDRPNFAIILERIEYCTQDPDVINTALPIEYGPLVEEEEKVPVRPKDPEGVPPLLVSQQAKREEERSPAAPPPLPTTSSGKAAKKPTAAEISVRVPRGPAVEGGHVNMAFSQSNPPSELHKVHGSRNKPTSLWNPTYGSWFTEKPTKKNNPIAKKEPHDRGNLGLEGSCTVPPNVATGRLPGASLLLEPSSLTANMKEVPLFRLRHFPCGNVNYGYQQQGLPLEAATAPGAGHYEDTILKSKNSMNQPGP

{"columns": ["molecule", "targetOfAssay", "IC50"],
 "data": [
  ["COc1cc(CN2CCN(C(=O)OC(C)(C)C)CC2)ccc1Nc1ncc2ccc(-c3ccccc3N(C)S(C)(=O)=O)n2n1", "ALK (Homo sapiens, UniProt Q9UM73)", "< 100 nM"],
  ["CNC(=O)c1cccc(Nc2ncc3ccc(-c4cnn(C)c4)n3n2)c1", "ALK (Homo sapiens, UniProt Q9UM73)", "1000 to 10000 nM"],
  ["COc1cc(OC2CCN(C)CC2)ccc1Nc1ncc2ccc(-c3ccccc3N(C)S(C)(=O)=O)n2n1", "ALK (Homo sapiens, UniProt Q9UM73)", "< 100 nM"]
]}

Now examine the next entry.
Quick check: IC50 of `CC(C)(C)NS(=O)(=O)c1cccc(-c2ccc3cnc(Nc4ccc5nn(CCN6CCOCC6)cc5c4)nn23)c1` ?
100 to 1000 nM

---

Catalogue of IC50 values
target: JAK2 (Homo sapiens, UniProt O60674); construct: host or cells: baculovirus expression system; test: Recombinant Human JAK2 Kinase Assay (TRF); type: biochemical; details: JAK2 kinase inhibition, 0.2 μM ATP; read-out: JAK2 Potency
Sequence (O60674 whole entry): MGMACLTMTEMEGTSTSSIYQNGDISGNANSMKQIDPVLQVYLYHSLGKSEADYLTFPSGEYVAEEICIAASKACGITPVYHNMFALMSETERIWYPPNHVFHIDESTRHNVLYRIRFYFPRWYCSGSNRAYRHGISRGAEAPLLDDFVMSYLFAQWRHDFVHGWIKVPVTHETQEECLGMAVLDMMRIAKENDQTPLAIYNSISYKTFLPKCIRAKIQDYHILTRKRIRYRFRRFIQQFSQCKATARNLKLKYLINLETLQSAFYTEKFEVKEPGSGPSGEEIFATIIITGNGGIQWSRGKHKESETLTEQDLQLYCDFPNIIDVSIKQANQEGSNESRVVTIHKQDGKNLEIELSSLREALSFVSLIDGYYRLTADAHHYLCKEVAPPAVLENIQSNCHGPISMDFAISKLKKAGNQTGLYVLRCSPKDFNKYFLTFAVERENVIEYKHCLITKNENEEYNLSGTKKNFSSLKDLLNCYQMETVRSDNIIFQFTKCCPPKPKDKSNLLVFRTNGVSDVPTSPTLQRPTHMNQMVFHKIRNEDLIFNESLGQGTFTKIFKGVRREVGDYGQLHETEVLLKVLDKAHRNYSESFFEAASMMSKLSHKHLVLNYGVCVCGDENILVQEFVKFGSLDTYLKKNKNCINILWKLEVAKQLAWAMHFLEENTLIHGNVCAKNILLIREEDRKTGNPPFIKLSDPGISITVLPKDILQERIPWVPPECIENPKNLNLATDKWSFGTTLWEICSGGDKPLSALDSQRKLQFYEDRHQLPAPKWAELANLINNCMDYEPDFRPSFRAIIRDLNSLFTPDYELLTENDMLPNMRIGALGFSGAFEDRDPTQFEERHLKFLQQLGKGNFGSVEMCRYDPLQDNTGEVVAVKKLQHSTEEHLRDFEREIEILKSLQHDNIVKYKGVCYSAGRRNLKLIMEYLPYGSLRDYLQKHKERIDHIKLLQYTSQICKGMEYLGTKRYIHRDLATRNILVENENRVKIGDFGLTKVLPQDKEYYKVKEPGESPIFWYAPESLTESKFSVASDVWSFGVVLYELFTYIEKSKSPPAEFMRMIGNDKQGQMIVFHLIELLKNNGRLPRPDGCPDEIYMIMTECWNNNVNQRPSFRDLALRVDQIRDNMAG

Worked cases, IC50 given:
{"columns": ["compound", "IC50"],
 "data": [
  ["COc1cc2c(cc1Nc1ncc3ccc(-c4cccc(S(=O)(=O)NC5CC5)c4)n3n1)CCN(CC(N)=O)CC2", "100 to 1000 nM"],
  ["CN(c1ccccc1-c1ccc2cnc(Nc3ccc(N4CCN(CCO)CC4)cc3)nn12)S(C)(=O)=O", "< 100 nM"],
  ["COc1cc([C@@H]2CCN(CC(N)=O)C[C@@H]2O)ccc1Nc1ncc2ccc(-c3ccccc3N(C)S(C)(=O)=O)n2n1 (racemic)", "100 to 1000 nM"],
  ["CN(C)S(=O)(=O)c1ccc(Nc2ncc3ccc(-c4cccc(S(=O)(=O)NC(C)(C)C)c4)n3n2)cc1", "< 100 nM"],
  ["CC(C)(C)NS(=O)(=O)c1cccc(-c2ccc3cnc(Nc4ccc(CN5CCS(=O)(=O)CC5)cc4)nn23)c1", "< 100 nM"]
]}

Sample `COCc1ccccc1-c1ccc2cnc(Nc3ccc(N4CCC(N5CCN(C)CC5)CC4)cc3OC)nn12` — what was its IC50?
< 100 nM

If you can, please state the reported IC50 value of `CN(c1ccccc1-c1ccc2cnc(Nc3ccc4c(c3)CCCC(=O)N4)nn12)S(C)(=O)=O` .
< 100 nM

---

Recorded measurements of IC50, one per entry
target: ALK (Homo sapiens); construct: host or cells: baculovirus expression system; assay: ALK Kinase Assay (ELISA/TRF, PLC-γ substrate); type: biochemical; conditions: ALK Kinase Inhibition; read-out: ALK Potency

{"columns": ["molecularString", "IC50"],
 "data": [
  ["CS(=O)(=O)Nc1cccc(-c2ccc3cnc(Nc4ccc(N5CCOCC5)cc4F)nn23)c1", "1 to 10 µM"],
  ["CC1(C)CCC(=O)Nc2cc(Nc3ncc4cc5ccccc5n4n3)ccc21", "> 10 µM"],
  ["CC(=O)Nc1cc(Nc2ncc3ccc(-c4cccc(S(=O)(=O)NC(C)(C)C)c4)n3n2)ccc1C", "0.1 to 1 µM"]
]}

Recorded IC50 of `COc1ccccc1-c1ccc2cnc(Nc3ccc(N4CCOCC4)cc3F)nn12` , please.
0.1 to 1 µM

I am curious: what IC50 value has been reported for `COc1cc(N2CCN(C3CCOCC3)CC2)ccc1Nc1ncc2ccc(-c3ccccc3N(C)S(C)(=O)=O)n2n1` ?
< 0.1 µM
